Cited source: ChEMBL document CHEMBL1129795

# System: Cricetinae gen. sp.
# Procedure Details: In vivo cholesterol absorption inhibitory activity using 7-day cholesterol-fed hamster model (expressed as percent change in serum cholesterol at 50 mg/kg/day)
# Assay type: functional, Cricetulus griseus
Some compounds, each annotated with its measured Change.
Measured Endpoint: Change (%)

1) COc1ccc(N2C(=O)[C@H](CCCc3ccccc3)[C@H]2c2cccc(OC)c2)cc1 | -17
2) COc1ccc([C@@H]2[C@@H](CCCc3ccccc3)C(=O)N2c2ccc(F)cc2)cc1 | -38
3) COc1ccc([C@@H]2[C@@H](CCCc3ccccc3)C(=O)N2c2ccc(OC(F)(F)F)cc2)cc1 | -34
4) COc1ccc([C@@H]2[C@H](C)C(=O)N2c2ccc(OC)cc2)cc1 | 0
5) COc1ccc(N2C(=O)[C@H](CCCc3ccccc3)[C@H]2c2ccc(F)cc2)cc1 | 0
6) CC[C@]1(CCCc2ccccc2)C(=O)N(c2ccc(OC)cc2)[C@@H]1c1ccccc1 | -12
7) CCN1C(=O)[C@H](CCCc2ccccc2)[C@H]1c1ccc(OC)cc1 | -13

====

# System: Cricetinae gen. sp.
# Procedure Details: In vivo for cholesterol absorption inhibitory activity using 7-day cholesterol-fed hamster model (expressed as percent change in cholesteryl esters at 50 mg/kg/day)
# Type: functional, Cricetulus griseus
Measured Endpoint: Change (%)

1. CCOc1ccc([C@@H]2[C@@H](CCCc3ccccc3)C(=O)N2c2ccc(OC)cc2)cc1 | -98
2. COc1ccc([C@@H]2[C@@H](CCCc3ccccc3)C(=O)N2c2ccc(S(C)(=O)=O)cc2)cc1 | -39
3. COc1ccc(N2C(=O)[C@H](CCCc3ccccc3)[C@H]2c2ccc3c(c2)OCO3)cc1 | -19
4. CC[C@]1(CCCc2ccccc2)C(=O)N(c2ccc(OC)cc2)[C@@H]1c1ccc(OC)cc1 | 0
5. COc1ccc(N2C(=O)[C@H](CCCc3ccccc3)[C@H]2c2ccc(N)cc2)cc1 | 0
6. COc1ccc([C@@H]2[C@@H](CCCc3ccccc3)C(=O)N2c2ccc([S+](C)[O-])cc2)cc1 (stereo partly drawn) | 0
7. COc1ccc(N2C(=O)[C@@H](CCCc3ccccc3)[C@H]2c2ccc(OC(C)C)cc2)cc1 | -78
8. COc1ccc([C@@H]2[C@@H](CCCc3ccccc3)C(=O)N2c2ccc(C#N)cc2)cc1 | -74
9. COc1ccc(N2C(=O)[C@H](CCCc3ccccc3)[C@H]2c2ccc(N(C)C)cc2)cc1 | -60
10. COc1ccc(C(=O)N2C(=O)[C@H](CCCc3ccccc3)[C@H]2c2ccc(OC)cc2)cc1 | 0
11. COc1ccc([C@@H]2[C@@H](CCCc3ccccc3)C(=O)N2Cc2ccccc2)cc1 | 16
12. CC[C@@]1(CCCc2ccccc2)C(=O)N(c2ccc(OC)cc2)[C@@H]1c1ccccc1 | 0
13. COc1ccc([C@@H]2[C@@H](CCCc3ccccc3)C(=O)N2c2ccccc2)cc1 | -95
14. COc1ccc(N2C(=O)[C@@H](CCCc3ccccc3)[C@H]2c2ccc(OC)c(OC)c2)cc1 | 0
15. COc1ccc([C@@H]2[C@@H](CCCc3ccccc3)C(=O)N2c2ccccc2OC)cc1 | -87
16. COc1ccc(N2C(=O)[C@H](CCCc3ccccc3)[C@H]2c2ccc(F)cc2)cc1 | 12
17. COc1ccc([C@@H]2[C@@H](CCCc3ccccc3)C(=O)N2c2ccc(Cl)cc2)cc1 | -93
18. COc1ccc(N2C(=O)[C@H](CCCc3ccccc3)[C@H]2c2ccc(NC(C)=O)cc2)cc1 | -26
19. O=C1[C@H](CCCc2ccccc2)[C@@H](c2ccc(O)cc2)N1c1ccc(O)cc1 | -90
20. COc1ccc(N2C(=O)[C@H](CCCc3ccccc3)[C@H]2c2ccc(C)cc2)cc1 | -21
21. CCN1C(=O)[C@H](CCCc2ccccc2)[C@H]1c1ccc(OC)cc1 | -21
22. COc1ccc([C@H]2N(c3ccc(OC)cc3)C(=O)[C@]2(C)CCCc2ccccc2)cc1 | 21
23. C=CCN1C(=O)[C@H](CCCc2ccccc2)[C@H]1c1ccc(OC)cc1 | 0
